Assay: Primary qHTS for inhibitors of nuclear receptor binding SET domain protein 2 (NSD2) in an isogenic RCH-ACV NSD2 p.E1099K mutant (9B) (AID 1645876); further: nearly all actives have a fitted effect of over 70% in size
Conditions: RCH-ACV (leukaemia line) NSD2 E1099K (9B) viability, CellTiter-Glo, 72 h; series mostly up to 44.9 µM
Results filed as inconclusive are left out. Activity calls are given as the source filed them. The call rests on the fitted dose curve; in most records, active means well fitted inhibition curve with a large enough effect; inconclusive means small, poorly fitted or top-dose-only effect; inactive means flat fitted curve, though single readings scatter.
Outcomes: true (1) = active, false (0) = inactive

INSERT INTO measurements (compound, answer_label) VALUES
  ('O=C(Nc1ccc(C(O)(C(F)(F)F)C(F)(F)F)cc1)c1ccc(C(F)(F)F)cc1', 'true (1)'),
  ('C=C1CO[C@@]2(O[C@H]3CC4C5CC=C6C[C@@H](O)C[C@@H](O[C@@H]7OC[C@H](O)[C@H](O[C@@H]8OC[C@@H](O)[C@H](O)[C@H]8O)[C@H]7O[C@@H]7O[C@@H](C)[C@H](OC(C)=O)[C@@H](OC(C)=O)[C@H]7OC(C)=O)[C@]6(C)C5CC[C@]4(C)[C@@H]3[C@@H]2C)[C@@H](O)[C@H]1OC1OC(C)C(O)C(O)C1O (some centres not stated)', 'true (1)'),
  ('Cn1c(=O)c2c(ncn2Cc2ccc(C(C)(C)C)cc2)n(C)c1=O', 'true (1)'),
  ('COc1ccccc1OCCNCC(O)CCOc1cccc2[nH]c3ccccc3c12 (configuration not stated)', 'true (1)'),
  ('C=C1/C(=C/C=C2\CCC[C@]3(C)[C@@H]([C@H](C)CC[C@@H](O)C(C)(C)O)CC[C@@H]23)C[C@@H](O)C[C@@H]1O', 'true (1)'),
  ('Cc1cn2cc(C(=O)N(C)CCO)cc(NC3CCOc4cccc(C)c43)c2n1 (configuration not stated)', 'false (0)'),
  ('Nc1c(S(=O)(=O)c2ccccc2)c2nc3ccccc3nc2n1-c1ccc(F)cc1', 'false (0)');

---

Test system: SKOV3
Experiment: Primary qHTS to identify gynecologic anti-cancer compounds using libraries of approved drugs and bioactive compounds (AID 1345084); further: nearly all actives have a fitted effect of over 55% in size
Settings: Gynecologic cancer cell panel viability, ATPlite luminescence, 48 h; series mostly up to 57.5 µM
Records with an inconclusive call do not appear. Calls of active or inactive are those of the source. Calls follow the shape of the dose curve; as a rule, active = well fitted cell-killing curve with a large enough effect; inconclusive = small, poorly fitted or top-dose-only effect, or effect the other way; inactive = flat fitted curve, though single readings scatter.
Outcomes: Y = active, N = inactive

INSERT INTO measurements (compound, answer_label) VALUES
  ('O=C(Nc1ncc([N+](=O)[O-])s1)c1ccccc1O', 'N'),
  ('Cc1cc(-c2nc3cc(F)ccc3s2)ccc1NC(=O)[C@@H](N)CCCCN', 'Y'),
  ('C=C1C(=O)O[C@@H]2C(OC(=O)/C(C)=C\C)/C(C)=C\C(=O)/C=C(\C)C[C@H](O)[C@@H]12 (stereo not given in full)', 'N'),
  ('Oc1ccc(-c2cnc3ccc(NCc4ccco4)nn23)cc1', 'Y'),
  ('O=C1COC2(CCN(S(=O)(=O)c3ccc(-c4ccc5cccnc5c4)cc3)CC2)CN1C1CC1', 'N'),
  ('CC1=C2C[C@@]3(C)C(CCC[C@@H]3C)C(O)C2OC1=O (stereo not given in full)', 'N'),
  ('COC1=CC(=O)O/C1=C(/OC)[C@@H]1O[C@H]1c1ccccc1', 'N'),
  ('CCCCc1ccc(NS(=O)(=O)c2ccc(F)cc2)cc1', 'N'),
  ('O=C(Nc1ccc(N(Cc2ccsc2)C(=O)Cn2nnc3ccccc32)cc1)C1CC1', 'N'),
  ('COc1ccc(C2Oc3c(OC)cc(CCCO)cc3C2COC2OC(CO)C(O)C(O)C2O)cc1OC (stereo not given)', 'N'),
  ('O=S(=O)(Nc1cc(Cl)c(Oc2cnc3ccccc3c2)c(Cl)c1)c1ccc(Cl)cc1Cl', 'N'),
  ('CC(=O)OC[C@]12[C@H](OC(C)=O)[C@H](OC(=O)c3ccccc3)[C@@H]3[C@@H](OC(C)=O)[C@]1(OC3(C)C)[C@H](C)C[C@H](OC(C)=O)[C@@H]2OC(=O)c1ccccc1', 'N'),
  ('CCOc1ccc(CCNC(=O)c2cc3sc(Cl)cc3n2C)cc1OCC', 'N'),
  ('CCNC(=O)c1noc(-c2cc(Cl)c(O)cc2O)c1-c1ccc(OC)cc1', 'Y'),
  ('C[C@H]1CO[C@@H]2Cn3cc(C(=O)NCc4ccc(F)cc4F)c(=O)c(O)c3C(=O)N12', 'N'),
  ('CC(C)=CCCC1(C)C2CCC1(C)C(O)C2 (stereo not given)', 'N'),
  ('C/C=C/CCC1Cc2cc(O)c(CCCC)c(O)c2C(=O)O1 (stereo not given)', 'N'),
  ('NC(=O)C1=CC2C3C=CC2C(OC3=O)O1 (stereo not given)', 'N'),
  ('C=C1CC[C@H]2C(=C)CC[C@H]3C(=C)C(=O)O[C@@H]3[C@@H]12', 'N'),
  ('O=C(Nc1cc(C(F)(F)F)ccc1N1CCCCC1)c1ccncc1', 'N');

---

Target: Catechol O-methyltransferase (Homo sapiens) (UniProt P21964)
Sequence (P21964 whole entry, looked up): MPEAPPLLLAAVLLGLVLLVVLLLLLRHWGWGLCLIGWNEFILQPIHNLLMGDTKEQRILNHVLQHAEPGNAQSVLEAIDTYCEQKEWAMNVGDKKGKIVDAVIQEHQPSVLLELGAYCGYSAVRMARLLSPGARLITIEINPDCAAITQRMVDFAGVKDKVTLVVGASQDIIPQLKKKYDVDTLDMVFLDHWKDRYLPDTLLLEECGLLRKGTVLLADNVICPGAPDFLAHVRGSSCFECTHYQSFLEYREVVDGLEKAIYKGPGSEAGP
Assay: Confirmatory Screen for Target Class Profiling of Small Molecule Inhibitors of Methyltransferases (AID 1745852)
Conditions: MTase-Glo luminescence, SAH detection, recombinant enzyme; measured here: COMT max response; stronger effect = lower value
activity listing for selected compounds.
MEASURED_ATTRIBUTE: activity (%)

INSERT INTO measurements (compound, value_units, value_reported) VALUES
  ('CCc1c(Cl)c(O)c(Cl)c(O)c1C(=O)O[C@H]1[C@H](O)[C@H](OC)[C@H](OC/C2=C\C=C\C[C@H](O)/C(C)=C\[C@H](CC)[C@@H](O[C@@H]3OC(C)(C)[C@@H](OC(=O)C(C)C)[C@H](O)[C@@H]3O)/C(C)=C/C(C)=C/C[C@@H]([C@@H](C)O)OC2=O)O[C@@H]1C', '%', -16.7),
  ('C=C1C(=O)O[C@@H]2/C=C(\CO)CC/C=C(/C=O)C[C@H](O)[C@@H]12', '%', -86.9),
  ('CCC(=O)N1CCOc2c(cc(-c3ccc(OC)c(OC)c3)cc2OC[C@H]2CCCN(C)C2)C1', '%', -13.1),
  ('C=C1C(=O)O[C@@H]2C=C(COC(C)=O)CC/C=C(\CO)CC[C@@H]12', '%', -83.7),
  ('CC(C)(O)c1ccc2c(c1)ncn2-c1cccc(-c2ccccc2C#N)c1', '%', -35.9),
  ('CC(C)(C[C@@](O)(Cc1cc2ccncc2[nH]1)C(F)(F)F)c1cc(F)ccc1O', '%', 1.72),
  ('C=CC(=O)Nc1ccc2ncnc(Nc3cccc(Br)c3)c2c1', '%', -59.2),
  ('Nc1ncnc2c1c(-c1ccc(Oc3ccccc3)cc1)nn2[C@@H]1CCCNC1', '%', -13.8),
  ('C=C1C(=O)O[C@H]2CC(=C)[C@H]3CC[C@@](C)(O)[C@@H]3CC12 (stereo partly drawn)', '%', -86),
  ('COc1ccccc1OCCNCC(O)CCOc1cccc2[nH]c3ccccc3c12 (stereo not drawn)', '%', -5.33),
  ('COc1cc2c(cc1-c1c(C)noc1C)ncc1[nH]c(=O)n(C(C)c3ccccn3)c12 (stereo not drawn)', '%', -17.8),
  ('CC1(CO)CC(O)[C@]2(C(=O)O)CCC34CC3(C=CC3[C@]5(C)C(CC[C@]34C)C(C)(CO)[C@@H](O)[C@H](O)[C@@H]5O)C2C1 (stereo partly drawn)', '%', -56.5),
  ('CS(=O)(=O)Nc1ccc2oc3c(OC(F)F)ccc(C(=O)Nc4c(Cl)cncc4Cl)c3c2c1', '%', -3.19),
  ('C=C1C(=O)O[C@@H]2C3=C(C)CCC[C@]3(C)CC[C@@]12O', '%', -87.7),
  ('Cc1nnc(C[C@@H]2C=C(c3ccc(Cl)cc3)c3ccccc3-n3c(C)nnc32)o1', '%', -1.31),
  ('C=CC(=O)Nc1cccc(Nc2nc(Nc3ccc(OCCOC)cc3)ncc2F)c1', '%', -40.1),
  ('CC(C)C[C@H](CO)Nc1nc(S[C@@H](C)c2ccccc2)nc2nc(N)sc12', '%', -3.51),
  ('Cc1cc2c(N3CCCC3)nc(N3CCCC3)nc2n1C', '%', -23.9);

---

System: HaCat
Assay: Cytotoxic Profiling of Annotated Libraries Using Quantitative High-Throughput Screening (AID 1296008); further: nearly all actives have a fitted effect of over 60% in size
Conditions: Five cell lines viability, CellTiter-Glo ATP luminescence, 48-72 h
Inconclusive results are not listed. The source made the active and inactive calls. The call rests on the fitted dose curve; in most records, active means well fitted inhibition curve with a large enough effect; inconclusive means small, poorly fitted or top-dose-only effect; inactive means flat fitted curve, though single readings scatter.
Outcomes: active, inactive

INSERT INTO measurements (compound, answer_label) VALUES
  ('CN1C(=O)c2sccc2N(C)c2nc(Nc3ccc(S(N)(=O)=O)cc3)ncc21', 'active'),
  ('C=C1CCC[C@]2(C)CC/C(=C(/CO)C(=O)OC)C[C@@H]12', 'inactive'),
  ('CN1CCN(c2ccc(Nc3cc(-c4cccc(-n5ccc6cc(C7CC7)cc(F)c6c5=O)c4CO)cn(C)c3=O)nc2)CC1', 'active'),
  ('Cc1nc(C#Cc2ccnc(Cl)c2)c(C)n1-c1ccc(OC(F)(F)F)cc1', 'inactive'),
  ('COc1cc(N2CCC(O)CC2)ccc1Nc1nc(Nc2ccccc2S(=O)(=O)C(C)C)c2[nH]cnc2n1', 'active'),
  ('C=C1CC[C@@H]2[C@](C)(CO)[C@H](O)CC[C@@]2(C)[C@@H]1CC(O)C1=CCOC1=O (some centres undefined)', 'inactive'),
  ('CC(C)(C)c1ccc(C(=O)Nc2cn3cc(-n4ccnc4)ccc3n2)cc1', 'inactive'),
  ('Cc1cc(NC(=O)c2cccc(NC(=O)/C=C/CN(C)C)c2)ccc1Nc1nccc(-c2cccnc2)n1', 'active'),
  ('Cc1cccc(N2CCN(C(=O)c3cc(S(=O)(=O)N(C)C)ccc3N3CCCC3)CC2)c1C', 'inactive');

The measurements presented in this section are drawn from PubChem BioAssay (NCATS).
